experiment: Metabolic stability in C57BL/6 mouse liver microsome at 1 uM measured upto 60 mins in absence of NADPH/UDPGA by LC-MS/MS analysis; assay type: ADME; settings: liver microsomes, read-out: Stability
assay_metric: remaining at 1 h, 1 µM (%)

INSERT INTO assay_data (smiles, value_reported) VALUES
  ('CCNC(=O)C[C@@H]1N=C(c2ccc(Cl)cc2)c2cc(B(O)O)ccc2-n2c(C)nnc21', 100),
  ('Cc1ncsc1-c1ccc(CNC(=O)[C@@H]2C[C@@H](O)CN2C(=O)[C@@H](NC(=O)c2cccc(O)c2O)C(C)(C)C)cc1', 83);

###

Entries and their half-life values follow.
test: Half life in C57BL/6 mouse at 10 mg/kg, ip measured upto 24 hrs by LC-MS/MS analysis; type: ADME, organism-based; conditions: in vivo
assay_metric: half-life (h)

INSERT INTO measurements (smiles, assay_metric, unit_annotation, value_reported) VALUES
  ('Cc1ncsc1-c1ccc(CNC(=O)[C@@H]2C[C@@H](O)CN2C(=O)[C@@H](NC(=O)c2cccc(O)c2O)C(C)(C)C)cc1', 'half-life', 'h', 6.3),
  ('CCNC(=O)C[C@@H]1N=C(c2ccc(Cl)cc2)c2cc(B(O)O)ccc2-n2c(C)nnc21', 'half-life', 'h', 6.3);
